meta.source: patent US20240272170A1

- tested.target: T1, AA peptide
- T1 construct: The peptide was coated on the Octet sensor; also called peptide with N-terminal alanine and penultimate alanine
- test.protocol: BLI (Octet), peptide on sensor, purified protein in solution
- Excerpt: In the high-throughput assay, Octet sensors are coated with the peptide of interest and dipped in buffer containing the purified protein. An approximation of relative binding can be obtained by comparing the response after 200 seconds for each protein. Each protein has approximately the same molecular mass and is used at the same concentration, so ranking the proteins by response level in this assay gives an approximation of which proteins have improved binding. […]
Items are presented alongside their recorded Octet response after 200 sec association.
readout: Octet response after 200 sec association (nm)

[
  {
    "binder": "PS829 (designed binder, Variant of PS557) MPTAASATESAIEDTPAPARPEVDGRTKPKRQPRYHVVLWDDDDHTYQYVVVMLQSLFGHPRERGYRLAKEMDTLGRVIVLTTTREHAELKRDQIHAFGYDRLLARSKGSMKASIEAEE",
    "reading": 2.5
  },
  {
    "binder": "PS830 (designed binder, Variant of PS557) MPTAASATESAIEDTPAPARPEVDGRTKPKRQPRYHVVLWDDDDHTYQYVVVMLQSLFGHPRKRGYRLAKEMDTLGRVIVLTTTREHAELKRDQIHAFGYDRLLARSKGSMKASIEAEE",
    "reading": 0.215
  },
  {
    "binder": "PS798 (designed binder, Variant of PS557; also called V72M, Q75L) MPTAASATESAIEDTPAPARPEVDGRTKPKRQPRYHVVLWNDDDHTYQYVVVMLQSLFGHPPERGYRLAKEMDTLGRVIVLTTTREHAELKRDQIHAFGYDRLLARSKGSMKASIEAEE",
    "reading": 3.8
  },
  {
    "binder": "PS819 (designed binder, Variant of PS557; also called V72M, N41D, E63K) MPTAASATESAIEDTPAPARPEVDGRTKPKRQPRYHVVLWDDDDHTYQYVVVMLQSLFGHPPKRGYRLAKEMDTQGRVIVLTTTREHAELKRDQIHAFGYDRLLARSKGSMKASIEAEE",
    "reading": 0.519
  },
  {
    "binder": "PS809 (designed binder, Variant of PS557; also called V72M) MPTAASATESAIEDTPAPARPEVDGRTKPKRQPRYHVVLWNDDDHTYQYVVVMLQSLFGHPPERGYRLAKEMDTQGRVIVLTTTREHAELKRDQIHAFGYDRLLARSKGSMKASIEAEE",
    "reading": 0.0226
  }
]
